Please respond with reported MIC for every item in the list.
Tested on: Streptococcus pneumoniae
testMethodNotes: Antimicrobial activity against wild-type Streptococcus pneumoniae PC13 by agar dilution method
Format: functional
Number only, in µg/mL; omit the unit.

For reference, reported MIC for `CC[C@H]1OC(=O)[C@H](C)C(=O)[C@H](C)[C@@H](O[C@@H]2O[C@H](C)C[C@H](N(C)C)[C@H]2O)[C@](C)(OC)C[C@@H](C)C(=O)[C@H](C)[C@H]2N(CCCCn3cnc(-c4cccnc4)c3)C(=O)O[C@]12C` stands at 0.06

For reference, reported MIC for `CN(C)[C@@H]1C(O)=C(C(N)=O)C(=O)[C@@]2(O)C(O)=C3C(=O)c4c(O)cccc4[C@@](C)(O)[C@H]3C[C@@H]12` stands at 16
